# targetDesc: LsGH10A (Trametes sp., UniProt Z9JQD7XB80)
# Construct: native signal peptide removed (alpha-factor secretion signal), C-terminal 6xHis, codon-optimised, Pichia pastoris X-33; later-eluting Superdex 200 peak
# experimentNotes: continuous fluorogenic inhibition kinetics (4-methylumbelliferyl glycoside)
# appliedConditions: non-covalent; no covalent inhibition discernible after 1 h; 50 mM NaOAc pH 4.0 final; inhibition assay, printed only as affinity
readoutType: pKi
// pKi here means minus log10 of the molar concentration (mol/L)

Query: pKi; subject: O=C(CCCC[C@@H]1SC[C@@H]2NC(=O)N[C@@H]21)NCCCCCCCCN1[C@H]2[C@H](O)[C@@H](O)[C@H](O[C@@H]3OC[C@@H](O)[C@H](O)[C@H]3O)C[C@H]21 (stereo partly shown) 7.68
